- Test system: SW-620 colon
- ASSAY METHOD TEXT: NCI-60 one-dose screen, 48 h (100 = growth as untreated, 0 = no growth, -100 = all killed)
- EXPERIMENTAL SETUP: 10 µM unless noted
About 83,000 compounds went through this panel and 20% of them were active in at least one assay; those are over-represented in the sample as a whole.
For each of the compounds below, state its growth.
Answers are plain numbers, in %.

INSERT INTO results (compound, quantity, obs_value) VALUES
  ('CC(C)(C)n1cc(-c2ccnc(NCCCNS(=O)(=O)c3cccc4ccccc34)c2)c(-c2cccc(O)c2)n1', 'growth', 16.3);

// each listed compound needs a value for growth
1. O=C1CC(c2nc3ccccc3s2)CN1C1CCCCC1 (stereo not drawn)
2. CC/C=C\C[C@H](O)C/C=C1/C(=O)C=C[C@@H]1C/C=C\CCCC(N)=O
3. CSc1[nH]c2ncnc(N)c2c1C#N
4. Nc1cc2ccncc2c2ccccc12

## Output
107
5.37
128
62.7
